- test-target: T1, GPIa/IIa on a stable K562 cell line (UniProt P17301 30-1181; P05556 21-798, limits assumed)
- T1 construct: whole, on cells; also called K562 cell line expressing GPIa/IIa
- assay: flow cytometry on K562 cells expressing GPIa/IIa
readout-name: binding result

Lab book: binding result of H37L92 (Fab, V domains shown, Soluble Fab) VH: QVQLVESGGGVVQPGRSLRLSCAASGFTFSNYAMHWVRQAPGKGLEWVAVISYDGSNKYYADSVKGRFTISRDNSKNTLYLQMNSLRPEDTAVYYCARGGVAAFDYWGQGTLVTVSS VL: QSALTQPASVSGSPGQSITISCTGTSSDVGGYKYVSWYQQHPGKAPKLIIYDVTNRPSGVSKRFSGSKSGNTASLTISGLQAEDEADYYCSSYTSRSTPVFGGGTKVTVL noted as no binding

The reported binding result of the binder H38L74 (Fab, V domains shown, Soluble Fab) VH: QVQLVESGGGVVQPGRSLRLSCAASGFTFSNYAMHWVRQAPGKGLEWVAVISYDGSNKYYADSVKGRFTISRDNSKNTLYLQMNSLRPEDTAVYYCARGGVGAFDYWGQGTLVTVSS VL: EIVLTQSPATLSLSPGERATLSCRASQSVSSYLAWYQQKPGQAPRLLIYDASNRATGIPARFSGSGSGTDFTLTISSLEPEDFAVYYCQQRSNWPTFGGGTKVEIK was no binding

Value of binding result reported for the binder H48L24 (Fab, V domains shown, Soluble Fab, clone A) VH: QVQLVESGGGVVQPGRSLRLSCAASGFTISNYHIHWVRQAPGKGLEWVAFISYDGSNKYYADSVKGRFTISRDNSKNTLFLQMNSLTTEDTAVYYCAIVGPFDYRGQGTLVTVSS VL: DIQLTQSPTFLSASVGDRVTITCRASQGISRYLAWYQQKPGKAPKLLIYAASTLQSGVPSRFSGSGSGTDFTLTFSSLQPEDFATYYCQQLNSYPFTFGGGTTVEIK is no binding

Where do these numbers come from? They come from patent US8216581.
